Test system: HOP-92
Experiment: Cytotoxicity against human HOP92 cells after 2 days by sulforhodamine B assay
Type: functional
Details: HOP-92, 48 h
value_type: GI50 (µM)

* COc1cc(-c2ccc[nH]2)[nH]c1/C=C1\N=C(C)C(C(=O)CCC(=O)Oc2ccc3c(c2)CC[C@@H]2[C@@H]3CC[C@]3(C)C(=O)CC[C@@H]23)=C1C | 2.23
* CC/C(=C(/c1ccc(OCCN(C)C)cc1)c1ccc(OC(=O)CCCCCCCCC(=O)C2=C(C)/C(=C/c3[nH]c(-c4ccc[nH]4)cc3OC)N=C2C)cc1)c1ccccc1 | 1.95
* CCC(=C(c1ccc(OCCN(C)C)cc1)c1ccc(OC(=O)CCCCC(=O)C2=C(C)/C(=C/c3[nH]c(-c4ccc[nH]4)cc3OC)N=C2C)cc1)c1ccccc1 | 1.12
* CC/C(=C(/c1ccc(OCCN(C)C)cc1)c1ccc(OC(=O)CCC(=O)C2=C(C)/C(=C/c3[nH]c(-c4ccc[nH]4)cc3OC)N=C2C)cc1)c1ccccc1 | 0.76
